Biological target: T1, murine HVEM (murine, UniProt Q80WM9 39-206, limits assumed); further: test concentration or dose not given here
T1 construct: also called Mouse
T1 sequence (looked up): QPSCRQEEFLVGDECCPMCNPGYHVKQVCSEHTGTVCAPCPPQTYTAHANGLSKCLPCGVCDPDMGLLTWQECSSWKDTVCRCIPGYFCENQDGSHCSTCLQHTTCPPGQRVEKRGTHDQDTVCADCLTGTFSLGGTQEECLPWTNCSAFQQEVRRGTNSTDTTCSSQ
Assay: ELISA
measured-endpoint: ELISA signal
No unit in the answer, please; the number alone is enough.

q: Quick one: give measured ELISA signal for Ab_078 (H5S20-45A34A) (antibody, V domains shown, also called Ab_78) VH: EVQLQQSGAELVRSGASVKLSCAASGFNIKDYYMHWVKQRPEQGLEWIGWIDPENGDTEFAPKFQGKATLTADTSSNTAYLQLSSLTSEDTAVYYCNTRTLGYWGQGTLVTVSA VL: QIVLTQSPALMSASPGEKVTMTCTASSSVSYMYWYQQKPRSSPKPWIYLTSNLASGVPARFSGSGSGTSYSLTISSMEAEDAATYYCQQWSSNPLTFGAGTKLELR
a: 0.046

q: Quick one: give measured ELISA signal for Ab_077 (H5S20-31A16B) (antibody, V domains shown, also called Ab_77) VH: EVQLQQSGAELVRSGASVKLSCTTSGFNIKDYYMHWVKQRPEQGLEWIGWIDPENGDTEYAPKFQGKATMTADTSSNTAYLQLSSLTSEDTAVYYCNSRTLGYWGQGTLVTVSA VL: QIVLTQSPALMSASPGEKVTMTCSASSSVSFIYWYQQKPRSSPKPWIYLTSNLASGVPARFSGSGSGTSYSLTISSMEAEDAATYYCQQWSSNPLTFGAGTKLEL
a: 0.043

q: Quick one: give measured ELISA signal for Ab_025 (H5S15-2A2A) (antibody, V domains shown, also called Ab_25) VH: EVQLQQSGAELVKPGASVKLSCTASGFNIKDTYMHWVKQRPEQGLEWIGRIDPANDNTKYDPKFQGKATITADTSSNTAYLQLSSLTSEDTAVYYCARVYYAMDYWGQGTSVTVSS VL: DIQMTQSPASLSASVGETVTITCRASENIYSYLAWYQQKQGKSPQLLVYNAKTLAEGVPSRFSGSGSGTQFSLKINSLQPEDFGSYYCQHHYGTYTFGGGTKLEIK
a: 0.045
